Assay: protein stability index of a GFP-peptide fusion (yeast GPS) (PSI 1-4); higher = more stable; sorted into four equal gates, so the index is relative within each strain
Details: doa10∆
endpoint_name: protein stability index

Past entries and their recorded results:
WVAPQESSHEQEEFVQF [ECM29]
3.26
KVIKVLGRTGSRGGVTQ [RPS28A]
3.02
ETDHANTENNDPDIPMT [IRR1]
2.74

Note down protein stability index recorded for NMPNCDYLTLNKVVVNL [RPN2]
2.99

Look up and report measured protein stability index for this entry: QQIQEQVLKCKESWDPN [YGR119C/NUP57]
3.3

Report measured protein stability index; entry is INGWKFESLPLKSAENS [SWP82]
2.92

Provide one value: measured protein stability index of SRPLKKVKILEQIDENW [SWI3]
2.94

# return recorded protein stability index for input IEALYDDDTFSDREMAA [RPN2]
2.19

Using the record for SLSEFARRRQPTDQNNQ [SNF2] , state its measured protein stability index.
2.89

====

Experiment: protein stability index of a GFP-peptide fusion (yeast GPS) (PSI 1-4); higher = more stable; sorted into four equal gates, so the index is relative within each strain
Conditions: pdr5∆
Response key: criterion met means protein stability index >= 3; criterion not met means protein stability index < 3.

// known answers, use as guide
RNDKTLELMDSKKTGQF [POP1]
criterion met
RKYDLFQNLELETEQLS [SMC2]
criterion met
VLQPLLPRELPKLLDAL [SNU114]
criterion not met
VSNSGAQDEEIHKQIVI [UBP6]
criterion met
PLEKITDAYLDQYLWYE [PRP8]
criterion met

Reported protein stability index at or above 3? ISIFSTPGSVSLSAYNL [PRP8]
criterion not met

Item PIGRDGKLAKPRQLHNT [RPB2] with protein stability index of 3 or above?
criterion not met

Is it the case that MGQGLCNNINKGLKEND [BRR2] has protein stability index reaching or exceeding 3?
criterion met

Exam item: decide whether the reported protein stability index for GLSILFLTGQFASNKKI [YML103C/NUP188] is at least 3.
criterion not met

For this sequence, is measured protein stability index 3 or higher? RSNGSVASLSKRNKLLT [YJL039C/NUP192]
criterion not met

====

Experiment: protein stability index of a GFP-peptide fusion (yeast GPS) (PSI 1-4); higher = more stable; sorted into four equal gates, so the index is relative within each strain
Conditions: ubr1∆
# binarize protein stability index: threshold 3 inclusive, high side yes (1), low side no (0)

Below, 5 sequences whose answers are already recorded.
TFAVILFLIIQCYKIYD [YMR129W/POM152]
no (0)
LLNILITYGIIKVPTYI [SRB8]
no (0)
WQELARSTDEFNGAQLK [RPT5]
no (0)
LEASLNSITKDNIDYAP [YJL039C/NUP192]
no (0)
KGRAYKRLLYTRRFVNV [RPS30A]
no (0)

Would you kindly look at the next entry?
Is protein stability index for APMRLATAALEIILKLC [YJL039C/NUP192] at or above 3?
no (0)

====

Entries and their protein stability index values follow.
Assay: protein stability index of a GFP-peptide fusion (yeast GPS) (PSI 1-4); higher = more stable; sorted into four equal gates, so the index is relative within each strain
Details: ubr1∆
// no unit, no text: just the number

Example entries and their recorded answers appear below.
TSLLYLSTLEPSTSITL [RPN9]
2.13
PSRTRETATSERNASEV [GRR1]
2.84
SPMLSISNLTQEQVQDY [FAS1]
3.09
HPFIPLLKEKPNALKPL [RRP6]
2.71
GLVNPKTVQSMTQRAIQ [SWI3]
2.05
PFLNETKPGVYYVPYSK [RPC82]
3.36
KTAMAELALLNHWRQNK [BRR2]
1.88
LKENAGSLTFLDNKGSG [YIL149C/MLP2]
3.48

Specify protein stability index for FRTVKEMVKDRGYFITQ [RPB5] and stop.
2.08

Specify reported protein stability index for the sequence shown: NQQPQQQQQQQQNPKFL [SWI1]
2.9

Fill in reported protein stability index for this entry: LITPAVRNTAPNIRELG [YCG1]
3.09

Fill in reported protein stability index for this entry: IPVNKRRGAHGSELSSK [SIR3]
2.96

Look up and report measured protein stability index for this entry: ERGGKFHESGSQYSTMV [RGR1]
3.3

Tell us which protein stability index value is on record for NNKFANKIIPNVGLCIT [RPC25]
3

Give protein stability index for the following sequence: SSKAATPDTKNFFHAKK [SNF12]
2.93

// Input: YSTIRQLVYKRGFGKIN [RPL7A] . Output its protein stability index only.
1.98
